All values here come from patent US9902739B2.

SUBJECT_OF_TEST: GRK6, recombinant full-length GST-tagged human protein (Homo sapiens, UniProt P43250)
Construct: Enzyme: 20 nM GRK6, recombinant full-length GST-tagged human protein; GST
Sequence (P43250 whole entry): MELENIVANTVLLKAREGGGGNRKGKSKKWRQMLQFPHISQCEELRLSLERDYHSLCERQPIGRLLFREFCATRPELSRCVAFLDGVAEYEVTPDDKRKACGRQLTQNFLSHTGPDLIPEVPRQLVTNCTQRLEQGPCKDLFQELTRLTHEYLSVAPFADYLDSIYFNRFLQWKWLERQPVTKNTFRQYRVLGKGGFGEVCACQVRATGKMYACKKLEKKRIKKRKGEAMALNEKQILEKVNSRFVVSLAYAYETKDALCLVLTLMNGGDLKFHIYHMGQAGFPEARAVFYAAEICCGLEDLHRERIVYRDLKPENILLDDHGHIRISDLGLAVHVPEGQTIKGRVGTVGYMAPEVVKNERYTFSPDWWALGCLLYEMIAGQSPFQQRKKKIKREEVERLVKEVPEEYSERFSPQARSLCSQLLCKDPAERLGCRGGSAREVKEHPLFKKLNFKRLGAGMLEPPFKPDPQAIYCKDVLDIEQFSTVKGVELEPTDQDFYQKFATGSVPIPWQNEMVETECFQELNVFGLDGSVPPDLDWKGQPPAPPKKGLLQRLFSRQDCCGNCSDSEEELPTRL
MEASUREMENT_DESCRIPTION: GRK6 assay, IC50 determination (8-point concentration-response)
Assay type: biochemical
CONDITION: Series 1 (Table 11); 20 nM GRK6, ATP 12 μM (Km), Peptide 216 1 μM, incubation 7 h
Procedure: The following assay conditions were used. Buffer: 50 mM TRIS-HCl, pH 7.5, 5 mM MgCl2, 2 mM DTT, 0.01% Triton X-100, 10 μM Na3VO4, 10 μM b-GP, 1% DMSO Enzyme: 20 nM GRK6, recombinant full-length GST-tagged human protein Peptide substrate (Peptide 216): 1 μM One hundred two compounds (1-1-1-102) were further characterized by determining IC50 values in a GRK6 assay. This screen has been previously described in WO 2013/063458, which is incorporated by reference in its entirety herein. […]
PROPERTY: IC50 (nM)

A selection of reference data follows.
O=C(O)CSc1nnc(-c2ccc(-c3cccc(OCc4cccc(OC(F)F)c4)c3)o2)[nH]1 :: 195
CC(C)CCn1ccc(-c2ccc(-c3nnc(SCC(=O)O)[nH]3)o2)n1 :: 1170
O=C(O)CSc1nnc(-c2ccc(-c3ccc4[nH]c5ccccc5c4c3)o2)[nH]1 :: 131
Cc1n[nH]c(C)c1-c1ccc(-c2nnc(SCC(=O)O)[nH]2)o1 :: 4370
O=C(O)CSc1nnc(-c2ccc(-c3ccc([N+](=O)[O-])cc3)o2)[nH]1 :: 1310

[A] COc1ccc2cc(-c3oc(-c4nnc(SCC(=O)O)[nH]4)cc3-c3ccccc3)ccc2c1
[B] C#Cc1ccc(-c2nnc(SCC(=O)O)[nH]2)o1
[C] O=C(O)CSc1nnc(-c2ccc(-c3cnn(CCN4CCOCC4)c3)o2)[nH]1
# input // sort entries: IC50, high to low Output spec: a listing of the labels in the requested order.
# output C, B, A
(C: 6200 nM, B: 2300 nM, A: 1150 nM)

----------
SUBJECT_OF_TEST: GRK6, recombinant full-length GST-tagged human protein (Homo sapiens, UniProt P43250)
Construct: Enzyme: 20 nM GRK6, recombinant full-length GST-tagged human protein; GST
MEASUREMENT_DESCRIPTION: GRK6 assay, IC50 determination (8-point concentration-response)
Assay type: biochemical
CONDITION: Series 3 (Table 13); conditions as Example 18
pIC50: −log10 of the molar value.
PROPERTY: pIC50

A selection of reference data follows.
Fc1cc(-c2ccc(-c3nnc(SCc4nnn[nH]4)[nH]3)o2)cc(F)c1F :: 5.42
FC(F)(F)c1cccc(-c2ccc(-c3nnc(SCc4nnn[nH]4)[nH]3)o2)c1 :: 5.59
CN(C)S(=O)(=O)c1cccc(-c2ccc(-c3nnc(SCc4nnn[nH]4)[nH]3)o2)c1 :: 5.04
COc1cc(F)cc(-c2ccc(-c3nnc(SCc4nnn[nH]4)[nH]3)o2)c1 :: 5.54
CS(=O)(=O)Nc1ccc(-c2ccc(-c3nnc(SCc4nnn[nH]4)[nH]3)o2)cc1 :: 5.43

[1] FC(F)(F)c1cc(-c2ccc(-c3nnc(SCc4nnn[nH]4)[nH]3)o2)ccc1Cl
[2] CNS(=O)(=O)c1cccc(-c2ccc(-c3nnc(SCc4nnn[nH]4)[nH]3)o2)c1
# input Select the item with the higher value of pIC50 from the options 1 and 2 listed. Could you answer with the label of the item you picked?
# output 1
